// data source = the Deep4Chem optical property database

For each entry below, report its absorption maximum value.
Assay: solvent given as SMILES
Conditions: in ClCCl
Provide only the numeric value, understood in nm.

Which absorption maximum reading was recorded for the compound "CCn1c2ccccc2c2cccc(N(c3ccccc3)c3ccccc3)c21" ?
353

Same read-out for "CC1(C)CC(/C=C/c2ccc(-n3c4ccccc4c4ccccc43)cc2)=CC(=C(C#N)C#N)C1" ?
410

Thanks! And "CC1=CC(C)=[N+]2C1=C(c1c3ccccc3c(-c3ccccc3)c3ccccc13)c1c(C)cc(C)n1[B-]2(F)F" ?
507

Next: "COc1c2ccccc2c(OC)c2c1c1c(C)ccc(OC)c1n2C"
418

And for "COc1cc2c3c(c4cc(OC)c(OC)c(OC)c4c2c(OC)c1OC)=[N+]1C(=C(c2c(C)cc(C)cc2C)c2cc4c5cc(OC)c(OC)c(OC)c5c5c(OC)c(OC)c(OC)cc5c4n2[B-]1(F)F)C=3" ?
727

One more compound: O=Cc1ccc(C2=Cc3ccccc3P2(=O)c2ccccc2)cc1 (configuration not stated)
357

And what about the compound "CC(=O)O[B-]1(OC(C)=O)OC(/C=C/C=C/c2ccccc2)=CC(/C=C/C=C/c2ccccc2)=[O+]1" ?
474

"C(C#Cc1ccc2ccc3cccc4ccc1c2c34)#Cc1cccc2ccccc12" , same question.
412

# iterate: "CCCCCCN1C(=O)c2cccc3c(-c4ccc(-c5cc(-c6ccc(C)cc6)nn5-c5ccccc5)s4)ccc(c23)C1=O"
389

What do we get for "CC(C)(C)NC(=O)c1ccc2ccc3cccc4c3c2c1c1c2ccccc2c2ccccc2c41" ?
392

For "CC1=N/C(=C\c2ccccc2N)C(=O)N1C" then?
422

Note, next up: "CC(C)(C)NC(=O)c1ccc(C(=O)NC(C)(C)C)c2c1c1c3ccccc3c3ccccc3c1c1c3ccccc3c3ccccc3c21"
388

# repeat for "O=c1c2ccccc2c2nc3cc4c(C#C[Si](C5CCCCC5)(C5CCCCC5)C5CCCCC5)c5cc6nc7c8ccccc8c(=O)c8ccccc8c7nc6cc5c(C#C[Si](C5CCCCC5)(C5CCCCC5)C5CCCCC5)c4cc3nc2c2ccccc12"
731

Can you handle "CCN1\C(=C/C=C/C=C/C2=[N+](CC)c3ccc4ccccc4c3C2(C)C)C(C)(C)c2c1ccc1ccccc21" next?
693

Then what about the compound "COc1cc(OC)cc(-c2ccc(C3=CC(c4ccccc4)=C(c4ccccc4)C3)cc2)c1" ?
366

Input "C[Si](c1ccc(-c2nc3ccccc3n2-c2ccccc2)cc1)(c1ccc(-c2nc3ccccc3n2-c2ccccc2)cc1)c1ccc(-c2nc3ccccc3n2-c2ccccc2)cc1"
307

Next: "c1cnc(-c2c3ccccc3c(-c3ncccn3)c3ccccc23)nc1"
389
